Quick list: Minimum bacteriostatic concentration per entry.
test system: multidrug-resistant Pseudomonas aeruginosa MDR-PA 18-174; test: MIC by microbroth dilution, MDR-PA 18-174; assay type: cell-based; conditions: strain MDR-PA 18-174

{"columns": ["compound", "censoringOperator", "Minimum bacteriostatic concentration, µg/mL"],
 "data": [
  ["CO/N=C(\\C(=O)N[C@@H]1C(=O)N2C(C(=O)O)=C(CSc3nc(=O)c(=O)[nH]n3C)CS[C@H]12)c1csc(N)n1 [Ceftriaxone sodium]", "=", 128],
  ["O=C(O)C=Cc1ccccc1", ">", 128],
  ["OCCc1ccc(O)c(O)c1 [Hydroxytyrosol]", ">", 128],
  ["Cc1nnc(SCC2=C(C(=O)O)N3C(=O)[C@@H](NC(=O)Cn4cnnn4)[C@H]3SC2)s1 [Cefazolin sodium]", "=", 8],
  ["O=C(/C=C\\c1ccccc1)OCCc1ccc(O)c(O)c1 [Hydroxytyrosol cinnamic acid ester]", "=", 64]
]}

----------
system: multidrug-resistant Pseudomonas aeruginosa MDR-PA 18-202; test: MIC by microbroth dilution, MDR-PA 18-202; format: cell-based; conditions: strain MDR-PA 18-202
Quick list: Minimum bacteriostatic concentration per entry.

{"columns": ["molecule", "unitString", "censoringOperator", "Minimum bacteriostatic concentration"],
 "data": [
  ["OCCc1ccc(O)c(O)c1 [Hydroxytyrosol]", "µg/mL", ">", 128],
  ["Cc1nnc(SCC2=C(C(=O)O)N3C(=O)[C@@H](NC(=O)Cn4cnnn4)[C@H]3SC2)s1 [Cefazolin sodium]", "µg/mL", "=", 128],
  ["O=C(O)C=Cc1ccccc1 [Cinnamic acid]", "µg/mL", ">", 128],
  ["O=C(/C=C\\c1ccccc1)OCCc1ccc(O)c(O)c1 [Hydroxytyrosol cinnamic acid ester]", "µg/mL", ">", 128],
  ["CO/N=C(\\C(=O)N[C@@H]1C(=O)N2C(C(=O)O)=C(CSc3nc(=O)c(=O)[nH]n3C)CS[C@H]12)c1csc(N)n1 [Ceftriaxone sodium]", "µg/mL", "=", 16]
]}
